# Measurement protocol: self-splicing fitness, log relative to wild type (ln ratio); higher = more splicing; Tetrahymena group I intron in knt gene, E. coli kanamycin selection, DiMSum; sequences stand for … in CUCUCU…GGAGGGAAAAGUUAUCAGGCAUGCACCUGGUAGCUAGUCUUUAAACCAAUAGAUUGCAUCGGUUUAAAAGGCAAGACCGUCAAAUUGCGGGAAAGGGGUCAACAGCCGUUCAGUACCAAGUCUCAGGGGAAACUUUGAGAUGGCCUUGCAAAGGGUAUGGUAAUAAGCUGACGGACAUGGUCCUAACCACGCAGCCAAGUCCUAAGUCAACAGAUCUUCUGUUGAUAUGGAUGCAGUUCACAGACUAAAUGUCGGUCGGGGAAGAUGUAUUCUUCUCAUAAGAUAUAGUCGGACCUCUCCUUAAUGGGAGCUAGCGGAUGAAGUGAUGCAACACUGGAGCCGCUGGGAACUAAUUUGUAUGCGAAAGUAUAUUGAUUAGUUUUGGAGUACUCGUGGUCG;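 also: selection with 25 µg/mL kanamycin versus none on LB agar overnight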
# Assay context: 30 °C
Kindly note that classification relies on self-splicing fitness (ln) with these boundaries: interval 1: < -3; interval 2: ≥ -3 and < -2; interval 3: ≥ -2

- Sequence chain: "CUAUAGCAAUAUUACGUGGG"
  Group label: "interval 1"
- Sequence chain: "GACUAGCAAUAUUACGGAUC"
  Group label: "interval 3"
- Sequence chain: "ACGAAGCAAUAUUACGGGUU"
  Group label: "interval 1"
- Sequence chain: "AUUUAGCAAUAUUACGCAAU"
  Group label: "interval 2"
- Sequence chain: "AUUCAGCAAUAUUACGAGUA"
  Group label: "interval 3"
- Sequence chain: "GAAUAGCAAUAUUACGAAUC"
  Group label: "interval 2"
- Sequence chain: "CUACAGCAAUAUUACGUCUU"
  Group label: "interval 1"
- Sequence chain: "ACUGAGCAAUAUUACGCCCU"
  Group label: "interval 3"
- Sequence chain: "UCUUAGCAAUAUUACGGGUG"
  Group label: "interval 3"
- Sequence chain: "AGGAAGCAAUAUUACGGACA"
  Group label: "interval 3"
- Sequence chain: "GUUGAGCAAUAUUACGACAC"
  Group label: "interval 3"
- Sequence chain: "CUGUAGCAAUAUUACGCUCA"
  Group label: "interval 2"
- Sequence chain: "CGUGAGCAAUAUUACGGGGU"
  Group label: "interval 1"
- Sequence chain: "CACCAGCAAUAUUACGGCGC"
  Group label: "interval 2"
- Sequence chain: "UCUGAGCAAUAUUACGCAUU"
  Group label: "interval 1"
- Sequence chain: "GAACAGCAAUAUUACGAAGG"
  Group label: "interval 2"
- Sequence chain: "UCACAGCAAUAUUACGGCUG"
  Group label: "interval 1"
- Sequence chain: "AAUAAGCAAUAUUACGCCCU"
  Group label: "interval 3"
- Sequence chain: "GCGCAGCAAUAUUACGUGAC"
  Group label: "interval 3"
- Sequence chain: "CGCGAGCAAUAUUACGUAUG"
  Group label: "interval 3"
- Sequence chain: "AUCCAGCAAUAUUACGAGGA"
  Group label: "interval 2"
- Sequence chain: "AUGAAGCAAUAUUACGUGGG"
  Group label: "interval 2"
- Sequence chain: "UCUAAGCAAUAUUACGCGUA"
  Group label: "interval 1"
- Sequence chain: "CUCAAGCAAUAUUACGUAGG"
  Group label: "interval 3"
- Sequence chain: "GCAAAGCAAUAUUACGCGCG"
  Group label: "interval 3"
- Sequence chain: "GCCAAGCAAUAUUACGUUUU"
  Group label: "interval 2"
- Sequence chain: "CGAGAGCAAUAUUACGCGUA"
  Group label: "interval 1"
- Sequence chain: "UAGGAGCAAUAUUACGCAUU"
  Group label: "interval 1"
- Sequence chain: "UUCUAGCAAUAUUACGAUGU"
  Group label: "interval 1"
- Sequence chain: "GGGCAGCAAUAUUACGGUGA"
  Group label: "interval 3"
- Sequence chain: "CCGGAGCAAUAUUACGUAGG"
  Group label: "interval 1"
- Sequence chain: "GCUAAGCAAUAUUACGCUAU"
  Group label: "interval 3"
- Sequence chain: "CGGGAGCAAUAUUACGGUCU"
  Group label: "interval 2"
- Sequence chain: "AGACAGCAAUAUUACGACCU"
  Group label: "interval 3"
- Sequence chain: "UGCGAGCAAUAUUACGAAUG"
  Group label: "interval 2"
- Sequence chain: "CCCGAGCAAUAUUACGUCCU"
  Group label: "interval 1"
- Sequence chain: "CAAUAGCAAUAUUACGGGUC"
  Group label: "interval 1"
- Sequence chain: "UCCGAGCAAUAUUACGACGU"
  Group label: "interval 3"
- Sequence chain: "UAAUAGCAAUAUUACGUUGA"
  Group label: "interval 2"
- Sequence chain: "UGUUAGCAAUAUUACGCGAG"
  Group label: "interval 1"
- Sequence chain: "UCUGAGCAAUAUUACGACAG"
  Group label: "interval 3"
- Sequence chain: "GGACAGCAAUAUUACGCAUA"
  Group label: "interval 3"
- Sequence chain: "GGUAAGCAAUAUUACGAAUA"
  Group label: "interval 3"
- Sequence chain: "ACUUAGCAAUAUUACGUACC"
  Group label: "interval 2"
- Sequence chain: "UCCCAGCAAUAUUACGUGUU"
  Group label: "interval 1"
- Sequence chain: "AAUUAGCAAUAUUACGUUGA"
  Group label: "interval 2"
- Sequence chain: "CAGAAGCAAUAUUACGGCCU"
  Group label: "interval 3"
- Sequence chain: "UACCAGCAAUAUUACGUGGG"
  Group label: "interval 1"
- Sequence chain: "CGACAGCAAUAUUACGUAAU"
  Group label: "interval 1"
- Sequence chain: "CGACAGCAAUAUUACGUGCC"
  Group label: "interval 3"
- Sequence chain: "UGAGAGCAAUAUUACGUGGA"
  Group label: "interval 1"
- Sequence chain: "AUAUAGCAAUAUUACGGUCA"
  Group label: "interval 3"
- Sequence chain: "UCUGAGCAAUAUUACGUCUA"
  Group label: "interval 3"
- Sequence chain: "GAUAAGCAAUAUUACGGAAG"
  Group label: "interval 1"
- Sequence chain: "GUACAGCAAUAUUACGAGAC"
  Group label: "interval 2"
- Sequence chain: "UCCAAGCAAUAUUACGCACA"
  Group label: "interval 3"
- Sequence chain: "AGACAGCAAUAUUACGCGCG"
  Group label: "interval 3"
- Sequence chain: "CAAGAGCAAUAUUACGUAUC"
  Group label: "interval 1"
- Sequence chain: "ACGUAGCAAUAUUACGAUUU"
  Group label: "interval 3"

---

# Measurement protocol: self-splicing fitness, log relative to wild type (ln ratio); higher = more splicing; Tetrahymena group I intron in knt gene, E. coli kanamycin selection, DiMSum; sequences stand for … in CUCUCU…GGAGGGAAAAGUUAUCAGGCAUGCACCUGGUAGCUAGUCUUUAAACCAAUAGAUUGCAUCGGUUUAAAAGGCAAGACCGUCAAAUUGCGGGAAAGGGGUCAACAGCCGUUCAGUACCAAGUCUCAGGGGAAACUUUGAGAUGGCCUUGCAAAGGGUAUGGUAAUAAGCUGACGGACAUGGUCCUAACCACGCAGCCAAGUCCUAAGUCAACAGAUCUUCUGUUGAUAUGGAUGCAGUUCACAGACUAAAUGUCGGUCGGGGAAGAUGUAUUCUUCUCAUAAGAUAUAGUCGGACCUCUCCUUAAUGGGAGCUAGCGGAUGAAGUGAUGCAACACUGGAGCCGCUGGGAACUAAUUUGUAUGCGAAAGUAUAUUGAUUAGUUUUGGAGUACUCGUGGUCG
# Assay context: 30 °C
Kindly note that classification relies on self-splicing fitness (ln) with these boundaries: class 1: < -3; class 2: ≥ -3 and < -2; class 3: ≥ -2

- Sequence chain: "UGCCAGCAAUAUUACGUUCA"
  Group label: "class 3"
- Sequence chain: "CUCUAGCAAUAUUACGCUUG"
  Group label: "class 1"
- Sequence chain: "UUGAAGCAAUAUUACGCGUU"
  Group label: "class 1"
- Sequence chain: "AAGCAGCAAUAUUACGGGCC"
  Group label: "class 3"
- Sequence chain: "GGCAAGCAAUAUUACGAGAC"
  Group label: "class 3"
- Sequence chain: "UGAAAGCAAUAUUACGAAUG"
  Group label: "class 3"
- Sequence chain: "UCCGAGCAAUAUUACGCUCC"
  Group label: "class 3"
- Sequence chain: "UCAUAGCAAUAUUACGGCGU"
  Group label: "class 1"
- Sequence chain: "AUCCAGCAAUAUUACGACAG"
  Group label: "class 1"
- Sequence chain: "CGAUAGCAAUAUUACGAGCA"
  Group label: "class 1"
- Sequence chain: "UUGCAGCAAUAUUACGGGGA"
  Group label: "class 3"
- Sequence chain: "AGCGAGCAAUAUUACGCACA"
  Group label: "class 2"
- Sequence chain: "CCCGAGCAAUAUUACGAUAU"
  Group label: "class 1"
- Sequence chain: "AGGCAGCAAUAUUACGCACA"
  Group label: "class 3"
- Sequence chain: "GUCCAGCAAUAUUACGUAAA"
  Group label: "class 3"
- Sequence chain: "CUGAAGCAAUAUUACGUCGA"
  Group label: "class 2"
- Sequence chain: "AUAAAGCAAUAUUACGUUCC"
  Group label: "class 3"
- Sequence chain: "UCUAAGCAAUAUUACGGAUG"
  Group label: "class 2"
- Sequence chain: "UUCGAGCAAUAUUACGGUAA"
  Group label: "class 3"
- Sequence chain: "AGUAAGCAAUAUUACGGCGG"
  Group label: "class 2"
- Sequence chain: "GUUCAGCAAUAUUACGACUA"
  Group label: "class 3"
- Sequence chain: "ACUAAGCAAUAUUACGUAAG"
  Group label: "class 3"
- Sequence chain: "AUAAAGCAAUAUUACGCCGC"
  Group label: "class 2"
- Sequence chain: "AACCAGCAAUAUUACGUUCA"
  Group label: "class 3"
- Sequence chain: "UAGUAGCAAUAUUACGGACA"
  Group label: "class 3"
- Sequence chain: "ACACAGCAAUAUUACGAGCA"
  Group label: "class 3"
- Sequence chain: "GAAUAGCAAUAUUACGUUUG"
  Group label: "class 3"
- Sequence chain: "CAGGAGCAAUAUUACGUUUG"
  Group label: "class 1"
- Sequence chain: "UUCAAGCAAUAUUACGUGAU"
  Group label: "class 3"
- Sequence chain: "CCCCAGCAAUAUUACGGGCU"
  Group label: "class 1"
- Sequence chain: "CGUCAGCAAUAUUACGCCCC"
  Group label: "class 3"
- Sequence chain: "GAUUAGCAAUAUUACGGCAG"
  Group label: "class 2"
- Sequence chain: "UGUCAGCAAUAUUACGACCC"
  Group label: "class 3"
- Sequence chain: "UGGUAGCAAUAUUACGGUAC"
  Group label: "class 1"
- Sequence chain: "UCUCAGCAAUAUUACGGCCA"
  Group label: "class 2"
- Sequence chain: "GACCAGCAAUAUUACGGUGC"
  Group label: "class 2"
- Sequence chain: "UGCGAGCAAUAUUACGACAU"
  Group label: "class 1"
- Sequence chain: "GGACAGCAAUAUUACGGUAA"
  Group label: "class 3"
- Sequence chain: "UACGAGCAAUAUUACGUAUG"
  Group label: "class 1"
- Sequence chain: "CACAAGCAAUAUUACGAACC"
  Group label: "class 2"
- Sequence chain: "CACUAGCAAUAUUACGUUAG"
  Group label: "class 1"
- Sequence chain: "AGCAAGCAAUAUUACGUAAC"
  Group label: "class 1"
- Sequence chain: "GCUUAGCAAUAUUACGAUAA"
  Group label: "class 2"
